- SYSTEM: rat isoform of TRPM8 channels (Rattus norvegicus, UniProt Q8R455)
- Construct: expressed in transfected cells
- Sequence (Q8R455 whole entry, canonical isoform): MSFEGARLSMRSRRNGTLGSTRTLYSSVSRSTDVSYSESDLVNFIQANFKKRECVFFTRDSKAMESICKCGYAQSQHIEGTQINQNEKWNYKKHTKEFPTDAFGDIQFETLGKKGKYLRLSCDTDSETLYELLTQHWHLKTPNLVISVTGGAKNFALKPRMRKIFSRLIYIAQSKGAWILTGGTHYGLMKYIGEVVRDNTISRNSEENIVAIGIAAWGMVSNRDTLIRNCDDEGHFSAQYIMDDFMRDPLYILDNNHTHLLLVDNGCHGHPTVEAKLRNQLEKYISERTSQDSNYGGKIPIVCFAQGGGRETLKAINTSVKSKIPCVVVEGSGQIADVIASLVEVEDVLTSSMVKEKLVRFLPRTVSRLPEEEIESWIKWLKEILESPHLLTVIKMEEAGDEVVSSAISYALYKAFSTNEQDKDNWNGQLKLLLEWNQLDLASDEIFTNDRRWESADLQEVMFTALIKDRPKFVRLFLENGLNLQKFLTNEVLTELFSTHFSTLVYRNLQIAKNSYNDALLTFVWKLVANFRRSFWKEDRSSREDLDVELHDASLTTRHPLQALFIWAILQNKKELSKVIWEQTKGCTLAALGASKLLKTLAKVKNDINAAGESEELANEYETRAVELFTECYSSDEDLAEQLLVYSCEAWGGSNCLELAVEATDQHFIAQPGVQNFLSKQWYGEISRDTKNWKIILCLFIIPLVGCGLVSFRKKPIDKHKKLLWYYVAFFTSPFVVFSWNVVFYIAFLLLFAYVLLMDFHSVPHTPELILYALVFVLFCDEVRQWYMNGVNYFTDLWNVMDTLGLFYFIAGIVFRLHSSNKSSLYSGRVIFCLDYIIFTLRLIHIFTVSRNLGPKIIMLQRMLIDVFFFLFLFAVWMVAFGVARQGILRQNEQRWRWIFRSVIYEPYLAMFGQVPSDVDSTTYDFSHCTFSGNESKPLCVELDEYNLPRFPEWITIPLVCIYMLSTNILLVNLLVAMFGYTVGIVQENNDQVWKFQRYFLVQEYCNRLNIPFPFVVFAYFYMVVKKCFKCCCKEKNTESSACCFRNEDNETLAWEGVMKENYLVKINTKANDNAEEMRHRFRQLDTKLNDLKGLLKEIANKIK
- ASSAY_EXPLANATION: Ca2+ fluorometric assay, block of menthol-evoked responses in HEK293 cells stably expressing rTRPM8
- Type: cell-based
- Procedure: The inhibitory activity of the 21 selected compounds over TRPM8 was challenged by Ca^2+ fluorometric assays using HEK293 cells stably expressing the rat isoform of TRPM8 channels. […] Briefly human embryonic kidney cell line (HEK) stably transfected with rTRPM8 or hTRPV1 were seeded in 96-well plates at a cell density of 30,000 cells. […] Fluorescence intensity was recorded during 7 more cycles and agonist 100 μM menthol for TRPM8 or 10 μM capsaicin for TRPV1 was added. […]
pIC50: −log10 of the molar value.
MEASUREMENT_NAME: pIC50

[[record]]
compound = "NCC1CCCN(CCc2cccc(F)c2)C1 (stereo not shown)"
measured_value = 4.99


a. Cc1nn(C)c(Oc2ccc(Cl)cc2)c1-c1noc(C)c1C(=O)Nc1ccc(F)cc1
b. CCOC(=O)C(C)Nc1ccccc1C(=O)NC(C)c1ccccc1 (stereo not shown)
c. COC(=O)C1=C(Nc2ccccc2F)SC(=Cc2ccccc2OCC#CC(C)(O)c2ccccn2)C1=O (stereo not shown)
Req: Number of compounds to sort: 3. Sort criterion: pIC50, ascending. # respond with the labels, arranged in the requested order
Resp: a, c, b
